# credit: patent US9321756B2

target: full length recombinant Pim-1 (Homo sapiens (Human)); assay: Pim enzyme assay (HTRF, phosphorylation of biotinylated-BAD (S112) peptide), Pim-1; type: biochemical; conditions: Pim-1 enzyme assay; read-out: Pim_1_IC50
property: IC50 (µM)

Nc1nnc(-c2ccc3[nH]cc(-c4cncc(N5CCCCC5)n4)c3c2)o1 [Example 89] ... 0.00211
Oc1nnc(-c2ccc3[nH]cc(-c4cccc(N5CCOCC5)n4)c3c2)s1 [Example 29] ... 0.121
CNc1nnc(-c2ccc3[nH]cc(-c4cccc(OC(F)(F)F)c4)c3c2)s1 [Example 225] ... 2.36
CC(C)(C)Nc1nnc(-c2ccc3[nH]cc(-c4ncc(F)c(C5CC5)n4)c3c2)o1 [Example 56] ... 0.00253
c1cc2[nH]cc(-c3cncc(C4CC4)n3)c2cc1-c1nnc(NC2CNC2)o1 [Example 247] ... 0.00134
Nc1nnc(-c2ccc3[nH]cc(-c4cncc(-c5ccccc5F)n4)c3c2)o1 [Example 116] ... 0.0152
CCOc1cccc(-c2c[nH]c3ccc(-c4nnc(N)s4)cc23)n1 [Example 164] ... 0.0147
CC[C@@H]1COCCN1c1nnc(-c2ccc3[nH]cc(-c4cncc(C5CC5)n4)c3c2)o1 (stereo in doubt) [Example 252] ... 0.00966
Nc1nnc(-c2ccc3[nH]cc(-c4cccc(OC5CCCC5)n4)c3c2)s1 [Example 163] ... 0.0147
Nc1nnc(-c2ccc3[nH]cc(-c4nccc(-c5ccccc5Cl)n4)c3c2)o1 [Example 118] ... 0.0167

[I] NC(=O)c1nnc(-c2ccc3[nH]cc(-c4cccc(N5CCOCC5)n4)c3c2)s1 [Example 242]
[II] CC(C)Oc1cccc(-c2c[nH]c3ccc(-c4nnc(N)o4)cc23)n1 [Example 87]
In: Lower value of IC50 belongs to which: I or II ? Choose, then provide that item's label.
Out: II
(II: 0.00415 µM, I: 0.983 µM)

----------
biological target: full length recombinant Pim-1 (Homo sapiens (Human), UniProt P11309); experiment: Pim enzyme assay (HTRF, phosphorylation of biotinylated-BAD (S112) peptide), Pim-1; type: biochemical; conditions: Pim-1 enzyme assay; read-out: Pim_1_IC50
Sequence (P11309 whole entry): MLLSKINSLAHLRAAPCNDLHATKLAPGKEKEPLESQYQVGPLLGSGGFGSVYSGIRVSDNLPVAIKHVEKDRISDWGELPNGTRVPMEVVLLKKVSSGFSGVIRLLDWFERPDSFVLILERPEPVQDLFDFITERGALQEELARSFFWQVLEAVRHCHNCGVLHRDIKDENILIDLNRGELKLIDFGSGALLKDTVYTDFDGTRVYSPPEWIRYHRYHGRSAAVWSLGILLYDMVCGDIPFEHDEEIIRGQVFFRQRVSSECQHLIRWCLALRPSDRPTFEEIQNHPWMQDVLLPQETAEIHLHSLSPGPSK
pIC50: −log10 of the molar value.
property: pIC50

Below: 2 compounds and their reported pIC50.
Cc1[nH]c2ccc(CNc3nnc(-c4ccc5[nH]cc(-c6ccc(F)cc6F)c5c4)s3)cc2c1C [Example 147] ... 6.29
C[C@H]1CCCCN1c1cccc(-c2c[nH]c3ccc(-c4nnc(N)s4)cc23)n1 (stereo in doubt) [Example 167] ... 7.72

[P] Nc1nnc(-c2ccc3[nH]cc(-c4ccccc4F)c3n2)o1 [Example 9]
[Q] CC(C)Nc1nnc(-c2ccc3[nH]cc(-c4nccc(OC(C)C)n4)c3c2)o1 [Example 60]
In: Lower value of pIC50 belongs to which: P or Q ? Choose, then provide that item's label.
Out: P
(P: 6.19, Q: 7.70)

[P] CCOc1cccc(-c2c[nH]c3ccc(-c4nnc(NC)s4)cc23)n1 [Example 230]
[Q] CC(C)Cn1cc(-c2c[nH]c3ccc(-c4nnc(N)o4)nc23)cn1 [Example 127]
In: Which value of pIC50 is greater, the one for P or the one for Q ? Choose, then provide that item's label.
Out: P
(P: 7.51, Q: 6.41)

[A] Nc1nnc(-c2ccc3[nH]cc(-c4nccc(OCC(F)(F)F)n4)c3c2)o1 [Example 110]
[B] Fc1ccccc1-c1c[nH]c2ccc(-c3nnc(NCc4cccc5[nH]ccc45)s3)cc12 [Example 143]
[C] CNc1nnc(-c2ccc3[nH]cc(-c4nccc(N5CCOCC5)n4)c3c2)s1 [Example 134]
[D] CC(Nc1nnc(-c2ccc3[nH]cc(-c4ncccn4)c3c2)o1)c1ccccc1 (centres unmarked) [Example 266]
In: Please list these compounds in decreasing order of pIC50. Respond with an ordered listing of the labels, as requested.
Out: A, C, D, B

----------
target: full length recombinant Pim-2 (Homo sapiens (Human)); assay: Pim enzyme assay (HTRF, phosphorylation of biotinylated-BAD (S112) peptide), Pim-2; type: biochemical; details: Pim-2 enzyme assay; read-out: Pim2_IC50
Sequence (Q9P1W9 whole entry): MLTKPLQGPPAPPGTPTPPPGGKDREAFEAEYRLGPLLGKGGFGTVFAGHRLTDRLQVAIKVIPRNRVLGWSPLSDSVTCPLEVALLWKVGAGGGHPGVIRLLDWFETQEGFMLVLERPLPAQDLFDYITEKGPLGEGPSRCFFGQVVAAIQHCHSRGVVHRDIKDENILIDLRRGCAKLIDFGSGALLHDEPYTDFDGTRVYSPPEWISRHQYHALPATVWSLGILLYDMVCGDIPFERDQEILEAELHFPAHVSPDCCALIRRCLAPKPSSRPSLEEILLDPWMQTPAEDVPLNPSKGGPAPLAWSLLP
property: IC50 (nM)

CNc1nnc(-c2ccc3[nH]cc(-c4nccc(-c5ccccc5)n4)c3c2)s1 [Example 131] ... 35.8

[A] CN(C)[C@H]1CCCN(c2ccnc(-c3c[nH]c4ccc(-c5nnc(N)o5)cc34)n2)C1 (stereo in doubt) [Example 107]
[B] CNc1nnc(-c2ccc3[nH]cc(-c4cncc(N(C)C)n4)c3c2)s1 [Example 231]
In: Which value of IC50 is greater, the one for A or the one for B ? Choose, then provide that item's label.
Out: B

----------
molecular target: full length recombinant Pim-1 (Homo sapiens (Human), UniProt P11309); experiment: Pim enzyme assay (HTRF, phosphorylation of biotinylated-BAD (S112) peptide), Pim-1; format: biochemical; conditions: Pim-1 enzyme assay; read-out: Pim_1_IC50
property: IC50 (nM)

c1ccc(-c2nnc(-c3ccc4[nH]cc(-c5nccc(C6CC6)n5)c4c3)o2)cc1 ... 323

[I] CNc1nnc(-c2ccc3[nH]cc(-c4cccc(-n5ccnc5C)n4)c3c2)s1
[II] CNc1nnc(-c2ccc3[nH]cc(-c4ccc(F)cc4F)c3c2)s1
In: Lower value of IC50 belongs to which: I or II ? Choose, then provide that item's label.
Out: I

----------
molecular target: full length recombinant Pim-3 (Homo sapiens (Human)); assay: Pim enzyme assay (HTRF, phosphorylation of biotinylated-BAD (S112) peptide), Pim-3; type: biochemical; conditions: Pim-3 enzyme assay; read-out: Pim3 IC50
pIC50: −log10 of the molar value.
property: pIC50

CNc1nnc(-c2ccc3[nH]cc(-c4cccc(OC)c4)c3c2)s1 [Example 226] ... 6.45
CC(C)Nc1nnc(-c2ccc3[nH]cc(-c4nccc(C5CC5)n4)c3c2)o1 [Example 264] ... 9.36
c1cc2[nH]cc(-c3cncc(C4CC4)n3)c2cc1-c1nnc(N2CCNCC2)o1 [Example 246] ... 8.15
Nc1nnc(-c2ccc3[nH]cc(-c4cncc(N5CCCCC5)n4)c3c2)s1 [Example 198] ... 8.56
N#Cc1cccc(-c2c[nH]c3ccc(-c4nnc(N)s4)cc23)n1 [Example 183] ... 7.32
CC1CCN(c2cncc(-c3c[nH]c4ccc(-c5nnc(N)s5)cc34)n2)CC1 [Example 162] ... 8.07

[P] C[C@H]1COCCN1c1ccnc(-c2c[nH]c3ccc(-c4nnc(N)o4)cc23)n1 [Example 91]
[Q] Nc1nnc(-c2ccc3[nH]cc(-c4nccc(Oc5ccccc5)n4)c3c2)o1 [Example 106]
[R] Nc1nnc(-c2ccc3[nH]cc(-c4nccc(-c5ccccc5Cl)n4)c3c2)o1 [Example 118]
[S] CNc1nnc(-c2ccc3[nH]cc(-c4cccc(C(F)(F)F)c4)c3c2)s1 [Example 224]
In: Please list these molecules in decreasing order of pIC50. Respond with an ordered listing of the labels, as requested.
Out: P, Q, R, S

[A] Nc1nnc(-c2ccc3[nH]cc(-c4nccc(Nc5ccccc5)n4)c3c2)o1 [Example 108]
[B] Nc1cccc(-c2c[nH]c3ccc(-c4nnc(N)s4)cc23)n1 [Example 190]
In: Lower value of pIC50 belongs to which: A or B ? Choose, then provide that item's label.
Out: B
(B: 6.73, A: 8.68)

[I] COc1ccc(-c2c[nH]c3ccc(-c4nnc(N)s4)cc23)nc1OC [Example 168]
[II] Nc1nnc(-c2ccc3[nH]cc(-c4cncc(N5CCC(F)(F)CC5)n4)c3c2)o1 [Example 2]
[III] CC1CCN(c2cccc(-c3c[nH]c4ccc(-c5nnc(N)s5)cc34)n2)CC1 [Example 175]
[IV] CNc1nnc(-c2ccc3[nH]cc(-c4cn[nH]c4)c3c2)s1 [Example 218]
In: Please list these molecules in decreasing order of pIC50. Respond with an ordered listing of the labels, as requested.
Out: II, I, III, IV

----------
target: full length recombinant Pim-2 (Homo sapiens (Human)); test: Pim enzyme assay (HTRF, phosphorylation of biotinylated-BAD (S112) peptide), Pim-2; format: biochemical; settings: Pim-2 enzyme assay; read-out: Pim2_IC50
pIC50: −log10 of the molar value.
property: pIC50

Below: 6 compounds and their reported pIC50.
Nc1nnc(-c2ccc3[nH]cc(-c4cnc(N5CCCC5)cn4)c3c2)s1 ... 6.16
CC(C)Nc1nnc(-c2ccc3[nH]cc(-c4nc(C5CC5)n[nH]4)c3c2)o1 ... 6.42
CNc1nnc(-c2ccc3[nH]cc(-c4csc(-c5ccoc5)n4)c3c2)s1 ... 5.58
CNc1nnc(-c2ccc3[nH]cc(-c4cccc(OC5CCC5)n4)c3c2)s1 ... 6.98
COc1ccnc(-c2c[nH]c3ccc(-c4nnc(NC(C)C)o4)cc23)n1 ... 7.78
Cc1ccccc1-c1ccnc(-c2c[nH]c3ccc(-c4nnc(N)o4)cc23)n1 ... 7.48

[1] CCOc1cccc(-c2c[nH]c3ccc(-c4nnc(N)s4)cc23)n1
[2] CC(C)Nc1nnc(-c2ccc3[nH]cc(-c4nccc(C(N)=O)n4)c3c2)o1
In: Which value of pIC50 is greater, the one for 1 or the one for 2 ? Choose, then provide that item's label.
Out: 1
(1: 7.67, 2: 7.15)
